Provide the recorded inhibition at 0.1 µM for the entries that follow.
measured-on: human recombinant serotonin (5-Hydroxytryptamine) 5-HT2C receptor (Homo sapiens)
Construct: expressed in transfected cells; host or cells: CHO-K1
protocol-description: Serotonin 5-HT2C radioligand binding ([3H]Mesulergine)
run-conditions: compound at 0.1 μM; read-out: Inhibition of ligand binding, Serotonin 5-HT2C (percent inhibition of specific binding)
The reply should consist of the numeric value with the unit placed after it.

1) Cc1ccc2c(c1)c1c(n2-c2ccc(-c3cccc4ccccc34)cn2)CCN(C)C1; 92%
2) Cc1ccc2c(c1)c1c(n2-c2ccc(-c3ccc(F)cc3)cn2)CCN(C)C1; 100%
3) Cc1ccc2c(c1)c1c(n2-c2cccc(-c3cnc(N(C)C)nc3)c2)CCN(C)C1; 32%

Continue with the molecule presented below.
**Q:** I have this molecule here, CNC(=O)c1cc(-n2c3c(c4cc(C)ccc42)CN(C)CC3)cs1 , and I need its recorded inhibition at 0.1 µM.
**A:** 35%

====

Hi there, I'd appreciate the recorded inhibition at 0.1 µM for every entry that follows.
measured-on: human recombinant serotonin (5-Hydroxytryptamine) 5-HT2C receptor (Homo sapiens, UniProt P28335)
Construct: expressed in transfected cells; host or cells: CHO-K1
Sequence (P28335 33-458): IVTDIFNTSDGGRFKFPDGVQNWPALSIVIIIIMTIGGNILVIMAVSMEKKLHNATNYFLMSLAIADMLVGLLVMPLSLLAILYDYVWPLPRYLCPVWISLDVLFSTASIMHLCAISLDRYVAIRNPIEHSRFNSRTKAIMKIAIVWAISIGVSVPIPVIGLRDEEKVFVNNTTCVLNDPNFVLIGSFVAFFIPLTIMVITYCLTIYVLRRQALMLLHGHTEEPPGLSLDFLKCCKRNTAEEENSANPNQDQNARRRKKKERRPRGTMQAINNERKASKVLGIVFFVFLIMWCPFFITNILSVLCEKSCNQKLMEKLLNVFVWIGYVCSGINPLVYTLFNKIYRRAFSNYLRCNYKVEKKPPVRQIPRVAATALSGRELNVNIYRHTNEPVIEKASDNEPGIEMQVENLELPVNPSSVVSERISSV
protocol-description: Serotonin 5-HT2C radioligand binding ([3H]Mesulergine)
run-conditions: compound at 0.1 μM; read-out: Inhibition of ligand binding, Serotonin 5-HT2C (percent inhibition of specific binding)
Answers are plain numbers, in %.

Some solved cases for reference:
1) Cc1ccc2c(c1)c1c(n2-c2cccc(-c3cncc4ccccc34)c2)CCN(C)C1; 23
2) Cc1ccc2c(c1)c1c(n2-c2cscc2-c2cncc3ccccc23)CCN(C)C1; 54
3) Cc1ccc2c(c1)c1c(n2-c2ccccc2-c2cccn2C)CCN(C)C1; 72

Let's switch to this molecule now.
**Q:** What measured inhibition at 0.1 µM goes with Cc1ccc2c(c1)c1c(n2-c2cscc2-c2ccc3c(ccn3C)c2)CCN(C)C1 ?
**A:** 49

====

measured-on: human recombinant serotonin (5-Hydroxytryptamine) 5-HT6 receptor (Homo sapiens, UniProt P50406)
Construct: expressed in transfected cells; host or cells: HeLa
Sequence (P50406 whole entry): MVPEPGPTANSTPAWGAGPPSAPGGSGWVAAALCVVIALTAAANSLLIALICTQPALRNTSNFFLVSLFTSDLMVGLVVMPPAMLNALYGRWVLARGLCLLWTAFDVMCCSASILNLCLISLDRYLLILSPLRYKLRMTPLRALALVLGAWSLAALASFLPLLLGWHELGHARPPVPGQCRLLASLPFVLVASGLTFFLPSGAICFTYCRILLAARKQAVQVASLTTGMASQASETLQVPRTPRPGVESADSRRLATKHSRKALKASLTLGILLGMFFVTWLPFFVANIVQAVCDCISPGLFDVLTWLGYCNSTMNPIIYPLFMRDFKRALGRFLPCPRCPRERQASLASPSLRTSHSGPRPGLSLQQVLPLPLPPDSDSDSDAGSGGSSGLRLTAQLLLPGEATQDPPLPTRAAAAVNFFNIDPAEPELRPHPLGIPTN
protocol-description: Serotonin 5-HT6 radioligand binding ([3H]LSD)
run-conditions: compound at 0.1 μM; read-out: Inhibition of ligand binding, Serotonin 5-HT6 (percent inhibition of specific binding)
measurement-type: inhibition at 0.1 µM (%)
Give bare numbers, in %.

1) Cc1ccc2c(c1)c1c(n2-c2ccc(-c3sccc3C)cn2)CCN(C)C1; 5

Take each entry in turn and give its inhibition at 0.1 µM.
1. Cc1ccc2c(c1)c1c(n2-c2ccc3ccccc3c2)CCN(C)C1
2. Cc1ccc2c(c1)c1c(n2-c2cccc(-c3ccc(C)s3)c2)CCN(C)C1
3. Cc1ccc2c(c1)c1c(n2-c2cccc3cnccc23)CCN(C)C1
4. Cc1ccc2c(c1)c1c(n2-c2cccc(-c3cccn3C)c2)CCN(C)C1

**A:**
1: 63; 2: -3; 3: 5; 4: 21

====

measured-on: human recombinant serotonin (5-Hydroxytryptamine) 5-HT2A receptor (Homo sapiens, UniProt P28223)
Construct: expressed in transfected cells; host or cells: CHO-K1
Sequence (P28223 whole entry): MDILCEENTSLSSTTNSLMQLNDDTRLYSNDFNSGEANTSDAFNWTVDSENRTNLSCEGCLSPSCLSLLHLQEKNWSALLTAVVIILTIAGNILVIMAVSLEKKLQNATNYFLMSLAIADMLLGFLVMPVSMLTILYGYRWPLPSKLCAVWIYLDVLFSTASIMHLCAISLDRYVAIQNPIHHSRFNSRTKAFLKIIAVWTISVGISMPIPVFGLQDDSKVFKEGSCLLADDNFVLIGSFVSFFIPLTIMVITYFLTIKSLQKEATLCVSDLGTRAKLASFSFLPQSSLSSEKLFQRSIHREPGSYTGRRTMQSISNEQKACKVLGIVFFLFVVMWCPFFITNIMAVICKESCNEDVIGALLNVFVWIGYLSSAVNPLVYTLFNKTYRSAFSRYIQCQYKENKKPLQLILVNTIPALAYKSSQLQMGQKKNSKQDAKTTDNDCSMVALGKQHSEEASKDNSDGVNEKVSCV
protocol-description: Serotonin 5-HT2A radioligand binding ([3H]Ketanserin)
run-conditions: compound at 0.1 μM; read-out: Inhibition of ligand binding, Serotonin 5-HT2A (percent inhibition of specific binding)
inhibition at 0.1 µM vs 60%: at or above is t, below is f.

Previously resolved entries follow.
1. CNC(=O)c1ccc(-c2ccccc2-n2c3c(c4cc(C)ccc42)CN(C)CC3)cc1 [Compound No. 72]; f
2. Cc1ccc2c(c1)c1c(n2-c2ccc3c(c2)CCN(C=O)C3)CCN(C)C1 [Compound No. 77]; f
3. Cc1ccc2c(c1)c1c(n2-c2ccc(-c3cnn(C)c3)cn2)CCN(C)C1 [Compound No. 134]; t

**Q:** Entry Cc1ccc2c(c1)c1c(n2-c2ccccc2-c2cnc(N(C)C)nc2)CCN(C)C1 [Compound 31] : is its inhibition at 0.1 µM no less than 60%?
**A:** f

**Q:** Given Cc1ccc2c(c1)c1c(n2-c2ccc(C(F)(F)F)nc2)CCN(C)C1 [Compound 4] , state whether its inhibition at 0.1 µM is at least 60%.
**A:** t

**Q:** Given Cc1ccc2c(c1)c1c(n2-c2cnc3ccccc3c2)CCN(C)C1 [Compound No. 88] , state whether its inhibition at 0.1 µM is at least 60%.
**A:** t

**Q:** Quick check, inhibition at 0.1 µM >= 60%? Cc1ccc2c(c1)c1c(n2-c2ccccc2-c2ccc3c(ccn3C)c2)CCN(C)C1 [Compound No. 85]
**A:** f

**Q:** Does the compound Cc1ccc2c(c1)c1c(n2-c2cccc(-c3cnc(N(C)C)nc3)c2)CCN(C)C1 [Compound 42] have recorded inhibition at 0.1 µM that is 60% or more?
**A:** t

====

Kindly state inhibition at 0.1 µM for each of the entries shown.
measured-on: human recombinant serotonin (5-Hydroxytryptamine) 5-HT5A receptor (Homo sapiens)
Construct: expressed in transfected cells; host or cells: CHO-K1
Sequence (P47898 whole entry): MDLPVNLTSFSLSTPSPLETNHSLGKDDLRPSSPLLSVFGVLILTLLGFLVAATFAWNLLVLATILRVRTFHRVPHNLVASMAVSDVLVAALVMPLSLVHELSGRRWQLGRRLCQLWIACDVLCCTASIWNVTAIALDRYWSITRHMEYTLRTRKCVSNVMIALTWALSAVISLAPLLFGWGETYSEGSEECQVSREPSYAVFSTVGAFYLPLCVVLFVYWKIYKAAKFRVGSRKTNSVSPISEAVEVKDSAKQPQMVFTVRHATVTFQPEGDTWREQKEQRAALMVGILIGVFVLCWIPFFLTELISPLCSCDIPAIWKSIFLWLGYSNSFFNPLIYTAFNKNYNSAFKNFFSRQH
protocol-description: Serotonin 5-HT5A radioligand binding ([3H]LSD)
run-conditions: compound at 0.1 μM; read-out: Inhibition of ligand binding, Serotonin 5-HT5A (percent inhibition of specific binding)
One number for each entry, in %.

1. Cc1ccc2c(c1)c1c(n2-c2cscc2-c2ccc3cnccc3c2)CCN(C)C1; 78
2. CC(=O)Nc1ccc(-c2cscc2-n2c3c(c4cc(C)ccc42)CN(C)CC3)cn1; 51

For each of the compounds below, state inhibition at 0.1 µM.
1. Cc1ccc2c(c1)c1c(n2-c2cccc(-c3cccn3C)c2)CCN(C)C1
2. Cc1ccc2c(c1)c1c(n2-c2cccc(-c3ccc(S(C)(=O)=O)cc3)c2)CCN(C)C1
3. Cc1ccc2c(c1)c1c(n2-c2ccc(-c3ccncc3)cn2)CCN(C)C1
4. CNC(=O)c1cc(-n2c3c(c4cc(C)ccc42)CN(C)CC3)cs1
5. Cc1csc(-c2ccccc2-n2c3c(c4cc(C)ccc42)CN(C)CC3)c1
6. Cc1ccc2c(c1)c1c(n2-c2ccccc2-c2ccc(C)s2)CCN(C)C1

**A:**
1: 36; 2: 19; 3: 2; 4: 24; 5: 50; 6: 69

====

measured-on: human recombinant serotonin (5-Hydroxytryptamine) 5-HT6 receptor (Homo sapiens)
Construct: expressed in transfected cells; host or cells: HeLa
protocol-description: Serotonin 5-HT6 radioligand binding ([3H]LSD)
run-conditions: compound at 0.1 μM; read-out: Inhibition of ligand binding, Serotonin 5-HT6 (percent inhibition of specific binding)
Source text: Receptor proteins were filtered and washed, the filters were then counted to determine [3H]LSD specifically bound.
measurement-type: inhibition at 0.1 µM (%)
Give bare numbers, in %.

1. Cc1ccc2c(c1)c1c(n2-c2cccc(-c3ccnn3C)c2)CCN(C)C1; 30
2. Cc1ccc2c(c1)c1c(n2-c2ccc3c(c2)CCN(C=O)C3)CCN(C)C1; 5

List the reported inhibition at 0.1 µM of each compound below.
1. Cc1ccc2c(c1)c1c(n2-c2cscc2-c2ccc(F)nc2)CCN(C)C1
2. Cc1ccc2c(c1)c1c(n2-c2ccc(-c3cccc4ccccc34)cn2)CCN(C)C1
3. CNC(=O)c1cccc(-c2ccc(-n3c4c(c5cc(C)ccc53)CN(C)CC4)nc2)c1
4. Cc1cc(C)c2c(c1)c1c(n2-c2ccc3ncccc3c2)CCN(C)C1

**A:**
21
0
-8
20

Give me inhibition at 0.1 µM for each of these compounds, listed below.
1. Cc1ccc2c(c1)c1c(n2-c2ccc(-c3cnc(N(C)C)nc3)cn2)CCN(C)C1
2. Cc1ccc2c(c1)c1c(n2-c2cscc2-c2cccnc2)CCN(C)C1
3. CC(=O)Nc1ccc(-c2ccccc2-n2c3c(c4cc(C)ccc42)CN(C)CC3)cn1
4. Cc1ccc2c(c1)c1c(n2-c2cscc2C(=O)N(C)C)CCN(C)C1
5. Cc1ccc2c(c1)c1c(n2-c2cscc2-c2cnc(N(C)C)nc2)CCN(C)C1
6. Cc1ccc2c(c1)c1c(n2-c2ccncc2)CCN(C)C1
7. Cc1ccc2c(c1)c1c(n2-c2ccc(-c3ccncc3)cn2)CCN(C)C1
8. Cc1ccc2c(c1)c1c(n2-c2cscc2-c2ccncc2)CCN(C)C1

**A:**
1: -6; 2: 14; 3: 3; 4: 22; 5: 19; 6: 17; 7: 2; 8: 18

Please supply inhibition at 0.1 µM for each of the following items, keeping them in order.
1. CNC(=O)c1ccc(-c2cccc(-n3c4c(c5cc(C)ccc53)CN(C)CC4)c2)cn1
2. Cc1ccc2c(c1)c1c(n2-c2ccccc2-c2ccccc2)CCN(C)C1
3. Cc1ccc2c(c1)c1c(n2-c2ccc(-c3ccc(F)nc3)cn2)CCN(C)C1

**A:**
4
52
-12

====

measured-on: human recombinant serotonin (5-Hydroxytryptamine) 5-HT7 receptor (Homo sapiens, UniProt P34969)
Construct: expressed in transfected cells; host or cells: CHO
Sequence (P34969 whole entry): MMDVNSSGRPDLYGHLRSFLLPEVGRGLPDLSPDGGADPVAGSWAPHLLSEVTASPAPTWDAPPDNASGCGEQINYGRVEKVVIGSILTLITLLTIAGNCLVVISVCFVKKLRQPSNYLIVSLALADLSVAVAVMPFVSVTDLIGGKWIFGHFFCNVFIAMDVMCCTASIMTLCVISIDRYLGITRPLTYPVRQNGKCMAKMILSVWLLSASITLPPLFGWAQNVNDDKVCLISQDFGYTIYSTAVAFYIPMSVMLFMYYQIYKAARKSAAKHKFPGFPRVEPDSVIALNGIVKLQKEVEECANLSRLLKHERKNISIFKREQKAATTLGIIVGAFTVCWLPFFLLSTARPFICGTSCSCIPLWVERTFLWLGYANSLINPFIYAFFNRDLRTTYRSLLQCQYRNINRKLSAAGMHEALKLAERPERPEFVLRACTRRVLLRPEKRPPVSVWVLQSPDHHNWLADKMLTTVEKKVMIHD
protocol-description: Serotonin 5-HT7 radioligand binding ([3H]LSD)
run-conditions: compound at 0.1 μM; read-out: Inhibition of ligand binding, Serotonin 5-HT7 (percent inhibition of specific binding)
What inhibition at 0.1 µM was measured for each of the following?
Numbers only, in %.

Here are 4 compounds together with their reported answers.
1) Cc1ccc2c(c1)c1c(n2-c2ccc3ccccc3c2)CCN(C)C1; 3
2) Cc1ccc2c(c1)c1c(n2-c2cccc(-c3cc4ccccc4s3)c2)CCN(C)C1; 13
3) Cc1ccc2c(c1)c1c(n2-c2cccc3ccncc23)CCN(C)C1; 69
4) CN1CCc2c(c3cc(Cl)ccc3n2-c2cscc2-c2ccccc2)C1; 95

**Q:** Recorded inhibition at 0.1 µM for CNC(=O)c1cccc(-c2cscc2-n2c3c(c4cc(C)ccc42)CN(C)CC3)c1 , please?
**A:** 73
